Protein target, amino acids: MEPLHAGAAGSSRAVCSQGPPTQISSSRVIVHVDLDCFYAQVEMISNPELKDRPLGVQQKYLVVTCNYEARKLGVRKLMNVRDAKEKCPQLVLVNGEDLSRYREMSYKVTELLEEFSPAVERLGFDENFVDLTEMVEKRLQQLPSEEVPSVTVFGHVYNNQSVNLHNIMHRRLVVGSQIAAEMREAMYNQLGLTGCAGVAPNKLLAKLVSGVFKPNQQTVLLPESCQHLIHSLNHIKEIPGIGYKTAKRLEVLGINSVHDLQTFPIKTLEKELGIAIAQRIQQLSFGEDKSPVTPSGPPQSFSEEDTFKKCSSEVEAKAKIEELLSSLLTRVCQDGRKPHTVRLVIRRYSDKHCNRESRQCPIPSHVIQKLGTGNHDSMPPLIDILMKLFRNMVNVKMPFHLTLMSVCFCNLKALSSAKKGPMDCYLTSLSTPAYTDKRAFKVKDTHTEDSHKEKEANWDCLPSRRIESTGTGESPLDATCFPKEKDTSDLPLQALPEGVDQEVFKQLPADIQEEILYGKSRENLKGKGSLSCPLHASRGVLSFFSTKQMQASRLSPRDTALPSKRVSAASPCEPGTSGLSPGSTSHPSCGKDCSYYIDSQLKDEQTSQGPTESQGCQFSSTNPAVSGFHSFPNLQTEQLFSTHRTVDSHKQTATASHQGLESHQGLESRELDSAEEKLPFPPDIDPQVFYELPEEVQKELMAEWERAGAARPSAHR
Readout label: IC50
Value and unit, in that order.

Record C/C=C/c1occ(C(=O)c2c(OC)cc(OC)cc2C(=O)OC)c(=O)c1OC [compound 1, 3-O-methylfunicone] . Reported IC50: 34.3 µM
